- assay-protocol: AUC (0 to infinity) in mouse plasma at 3 mg/kg, po by LC-MS/MS analysis
- Format: ADME, organism-based
- Parameters: dose 3 mg/kg, route oral, time infinity
Task for the reader: assign each of the following compounds its reported AUC(0-inf).
The figure you give is taken to be in ng·h/mL; do not add the unit.

Look up AUC(0-inf): "CCOC(=O)C1=C(CN2CCOC[C@H]2C(=O)O)NC(c2nccs2)=N[C@H]1c1cccc(F)c1Cl"
624

Look up AUC(0-inf): "COC(=O)C1=C(CN2CCOC[C@H]2C(=O)O)NC(c2nccs2)=N[C@H]1c1ccc(F)c(F)c1C"
344

Look up AUC(0-inf): "COC(=O)C1=C(CN2CCOC[C@H]2C(=O)O)N=C(c2nccs2)N[C@H]1c1ccc(F)cc1Cl"
962

* * *

- assay-protocol: Cytotoxicity against HBV infected human HepDE19 cells assessed as decrease in cell viability after 5 days by CCK8 assay
- Type: cell-based
measurement-label: CC50 at 120 h

Look up CC50 at 120 h: "CCOC(=O)C1=C(CN2CCOC[C@H]2C(=O)O)NC(c2nccs2)=N[C@H]1c1ccc(C)cc1Cl"
> 100 µM

Look up CC50 at 120 h: COC(=O)C1=C(CN2CCOC(C(=O)O)C2)NC(c2nccs2)=N[C@H]1c1ccc(F)cc1Cl (some centres undefined)
> 100 µM

Look up CC50 at 120 h: "COC(=O)C1=C(CN2CCOC[C@H]2C(=O)O)NC(c2ncccn2)=N[C@H]1c1ccc(F)cc1Cl"
> 100 µM

Look up CC50 at 120 h: "COC(=O)C1=C(CN2CCOC[C@H]2C(=O)O)NC(c2nccs2)=N[C@H]1c1ccc(F)cc1Br"
> 100 µM

* * *

pIC50: −log10 of the molar value.
measurement-label: pIC50

Lab request: please report pIC50 under test system Cytochrome P450 2D6 (Homo sapiens) for "COC(=O)C1=C(CN2CCOC[C@H]2C(=O)O)N=C(c2nccs2)N[C@H]1c1ccc(F)cc1Cl"
< 4.30

* * *

- assay-protocol: Half life in mouse at 1 mg/kg, iv by LC-MS/MS analysis
- Format: ADME, organism-based
- conditions: in vivo
measurement-label: half-life (h)
The figure you give is taken to be in h; do not add the unit.

Look up half-life: "COC(=O)C1=C(CN2CCOC[C@H]2C(=O)O)NC(c2nccs2)=N[C@H]1c1ccc(F)c(F)c1C"
1.4

Look up half-life: "COC(=O)C1=C(CN2CCOC[C@H]2C(=O)O)N=C(c2nccs2)N[C@H]1c1ccc(F)cc1Cl"
1.5

Look up half-life: "CCOC(=O)C1=C(CN2CCOC[C@H]2C(=O)O)NC(c2nccs2)=N[C@H]1c1cccc(F)c1Cl"
3

* * *

- assay-protocol: Selectivity index, ratio of CC50 for HBV infected human HepDE19 cells to EC50 for HBV infected in human HepG2(2.2.15) cells
measurement-label: Ratio CC50/EC50

Look up Ratio CC50/EC50: "COC(=O)C1=C(CN2CCOC[C@H]2C(N)=O)NC(c2nccs2)=N[C@H]1c1ccc(F)cc1Cl"
>33333

Look up Ratio CC50/EC50: "CCOC(=O)C1=C(CN2CCOC[C@H]2C(=O)O)NC(c2nccs2)=N[C@H]1c1ccc(C)cc1Cl"
>33333

Look up Ratio CC50/EC50: "COC(=O)C1=C(CN2CCOC[C@H]2C(=O)O)NC(c2nccs2)=N[C@H]1c1ccc(F)c(F)c1Cl"
>100000

Look up Ratio CC50/EC50: "COC(=O)C1=C(CN2CCOC[C@H]2CC(=O)O)NC(c2nccs2)=N[C@H]1c1ccc(F)cc1Cl"
>167

Look up Ratio CC50/EC50: "CCOC(=O)C1=C(CN2CCOC[C@H]2C(=O)O)NC(c2nccs2)=N[C@H]1c1ccc(F)cc1F"
>7143

Look up Ratio CC50/EC50: "COC(=O)C1=C(CN2CCOC[C@H]2C(=O)O)NC(c2nccs2)=N[C@H]1c1ccc(C)cc1Cl"
>9091

Look up Ratio CC50/EC50: "COCCOC(=O)C1=C(CN2CCOC[C@H]2C(=O)O)NC(c2nccs2)=N[C@H]1c1ccc(F)cc1Cl"
>526

Look up Ratio CC50/EC50: "COC(=O)C1=C(CN2CCOC[C@H]2C(=O)O)NC(c2nccs2)=N[C@H]1c1ccc(F)c(F)c1C"
>50000

Look up Ratio CC50/EC50: "CCOC(=O)C1=C(CN2CCOC[C@H]2C(=O)O)NC(c2nccs2)=N[C@H]1c1ccccc1Cl"
>7143
